- ASSAY_TARGET: BRD4 bromo domain 1 [BRD4(1)] (Homo sapiens)
- Construct: N-terminally His6-tagged BRD4(1) (amino acids 67-152)
- ASSAY_INFO: BRD4(1)/acetylated peptide H4 binding assay (TR-FRET)
- CONDITION: inhibition of interaction between BRD4(1) and acetylated histone H4 peptide
VALUE_KIND: IC50 (µM)

Illustrative cases are given below, each with its answer.
INSERT INTO measurements (compound, quantitative_readout) VALUES
  ('CC[C@@H]1C(=O)N(C)c2cnc(Nc3ncc(C(=O)NC4CC4)cc3OC)cc2N1C1CCCC1', 0.225),
  ('CC[C@@H]1C(=O)N(C)c2cnc(Nc3ncc(C(=O)NC(C)(C)CO)cc3OC)cc2N1C1CCCC1', 0.393),
  ('CC[C@@H]1C(=O)N(C)c2cnc(Nc3ncc(C(=O)NC4CCN(C)CC4)cc3OC)cc2N1C1CCCC1', 0.458),
  ('CC[C@@H]1C(=O)N(C)c2cnc(Nc3ncc(C4=NC(C)(C)CO4)cc3OC)cc2N1C1CCCC1', 0.732),
  ('CCc1cc(C(=O)N[C@@H]2CCCCNC2=O)cnc1Nc1cc2c(cn1)N(C)C(=O)[C@@H](CC)N2C1CCCC1', 0.343),
  ('CC[C@@H]1C(=O)N(C)c2cnc(Nc3ncc(C(=O)N[C@@H]4CCCCNC4=O)cc3OC)cc2N1C1CCCC1', 0.525),
  ('COc1cc(C(=O)NC2CCN(C)CC2)cnc1Nc1cc2c(cn1)N(C)C(=O)C(C)N2C1CCCC1 (stereo not drawn)', 0.243),
  ('CC[C@@H]1C(=O)N(C)c2cnc(Nc3ncc(C(=O)NC4CCN(C)CC4)cc3C)cc2N1C1CCCC1', 0.649),
  ('CC[C@@H]1C(=O)N(C)c2cnc(Nc3ncc(C(=O)NC4CCCCC4)cc3OC)cc2N1C1CCCC1', 0.878),
  ('COc1cc(C(=O)NC2CC2)cnc1Nc1cc2c(cn1)N(C)C(=O)C(C)N2C1CCCC1 (stereo not drawn)', 0.204);

A. CCc1cc(C(=O)NC2CC2)cnc1Nc1cc2c(cn1)N(C)C(=O)[C@@H](CC)N2C1CCCC1
B. CC[C@@H]1C(=O)N(C)c2cnc(Nc3ncc(C(=O)N[C@@H]4CCCCNC4=O)cc3C)cc2N1C1CCCC1
Ask: Please indicate which item has the smaller measured IC50: A versus B Indicate your choice by writing its label.
Reply: A
